Below, each of the compounds is paired with its reported Activity value.
Tested on: MCF7
assay: Anticancer activity against human MCF7 cells assessed as survival fraction at 50 uM after 48 hrs by SRB assay
Format: functional

compound: CC1(C)CC(=O)C2=C(C1)N(c1ccc(S(N)(=O)=O)cc1)c1nc(CC#N)[nH]c(=O)c1C2c1ccc(Cl)cc1 (stereo not drawn)
Activity: 0.774

compound: Cc1nc2c(c(=O)[nH]1)C(c1ccc(Cl)cc1)C1=C(CC(C)(C)CC1=O)N2c1ccc(S(N)(=O)=O)cc1 (stereo not drawn)
Activity: 0.45

compound: CC1(C)CC(=O)C2=C(C1)N(c1ccc(S(N)(=O)=O)cc1)c1nc[nH]c(=O)c1C2c1ccc(Cl)cc1 (stereo not drawn)
Activity: 0.499

compound: CCNC(=S)NC1=C(C#N)C(c2ccc(Cl)cc2)C2=C(CC(C)(C)CC2=O)N1c1ccc(S(N)(=O)=O)cc1 (stereo not drawn)
Activity: 0.594

compound: CC(=O)CC(=O)NC1=C(C#N)C(c2ccc(Cl)cc2)C2=C(CC(C)(C)CC2=O)N1c1ccc(S(N)(=O)=O)cc1 (stereo not drawn)
Activity: 0.648

compound: CC(=O)NC1=C(C#N)C(c2ccc(Cl)cc2)C2=C(CC(C)(C)CC2=O)N1c1ccc(S(N)(=O)=O)cc1 (stereo not drawn)
Activity: 0.446

compound: CC1(C)CC(=O)C2=C(C1)N(c1ccc(S(N)(=O)=O)cc1)C(N)=C(C#N)C2c1ccc(Cl)cc1 (stereo not drawn)
Activity: 0.429

compound: CC(=O)N(C(C)=O)C1=C(C#N)C(c2ccc(Cl)cc2)C2=C(CC(C)(C)CC2=O)N1c1ccc(S(N)(=O)=O)cc1 (stereo not drawn)
Activity: 0.504

* * *

System: MCF7
assay: Anticancer activity against human MCF7 cells assessed as survival fraction at 100 uM after 48 hrs by SRB assay
Format: functional
Below, each of the molecules is paired with its reported Activity value.

molecule: CC(=O)N(C(C)=O)C1=C(C#N)C(c2ccc(Cl)cc2)C2=C(CC(C)(C)CC2=O)N1c1ccc(S(N)(=O)=O)cc1 (stereo unspecified)
Activity: 0.414
//
molecule: CC(=O)NC1=C(C#N)C(c2ccc(Cl)cc2)C2=C(CC(C)(C)CC2=O)N1c1ccc(S(N)(=O)=O)cc1 (stereo unspecified)
Activity: 0.324
//
molecule: CC1(C)CC(=O)C2=C(C1)N(c1ccc(S(N)(=O)=O)cc1)C(N)=C(C#N)C2c1ccc(Cl)cc1 (stereo unspecified)
Activity: 0.484
//
molecule: CC1(C)CC(=O)C2=C(C1)N(c1ccc(S(N)(=O)=O)cc1)C(NC(=O)CCl)=C(C#N)C2c1ccc(Cl)cc1 (stereo unspecified)
Activity: 0.502
//
molecule: CC1(C)CC(=O)C2=C(C1)N(c1ccc(S(N)(=O)=O)cc1)c1nc(CCl)[nH]c(=O)c1C2c1ccc(Cl)cc1 (stereo unspecified)
Activity: 0.625
//
molecule: CC1(C)CC(=O)C2=C(C1)N(c1ccc(S(N)(=O)=O)cc1)c1ncnc(Cl)c1C2c1ccc(Cl)cc1 (stereo unspecified)
Activity: 0.546

* * *

Tested on: MCF7
assay: Anticancer activity against human MCF7 cells assessed as survival fraction at 25 uM after 48 hrs by SRB assay
Assay type: functional
The label 1 is reserved for Activity strictly under 0.7; -1 covers values equal to or above it.

compound: CCO/C=N/C1=C(C#N)C(c2ccc(Cl)cc2)C2=C(CC(C)(C)CC2=O)N1c1ccc(S(N)(=O)=O)cc1 (configuration not stated)
group-label: 1
//
compound: CC1(C)CC(=O)C2=C(C1)N(c1ccc(S(N)(=O)=O)cc1)C(N1C(=O)CCC1=O)=C(C#N)C2c1ccc(Cl)cc1 (configuration not stated)
group-label: -1
//
compound: CC1(C)CC(=O)C2=C(C1)N(c1ccc(S(N)(=O)=O)cc1)c1nc[nH]c(=O)c1C2c1ccc(Cl)cc1 (configuration not stated)
group-label: 1
//
compound: CC1(C)CC(=O)C2=C(C1)N(c1ccc(S(N)(=O)=O)cc1)c1nc[nH]c(=S)c1C2c1ccc(Cl)cc1 (configuration not stated)
group-label: -1
//
compound: CC1(C)CC(=O)C2=C(C1)N(c1ccc(S(N)(=O)=O)cc1)C(N)=C(C#N)C2c1ccc(Cl)cc1 (configuration not stated)
group-label: 1
//
compound: CC1(C)CC(=O)C2=C(C1)N(c1ccc(S(N)(=O)=O)cc1)c1ncnc(NN)c1C2c1ccc(Cl)cc1 (configuration not stated)
group-label: -1
//
compound: CC1(C)CC(=O)C2=C(C1)N(c1ccc(S(N)(=O)=O)cc1)c1nc(CC#N)[nH]c(=O)c1C2c1ccc(Cl)cc1 (configuration not stated)
group-label: -1
//
compound: CC(=O)N(C(C)=O)C1=C(C#N)C(c2ccc(Cl)cc2)C2=C(CC(C)(C)CC2=O)N1c1ccc(S(N)(=O)=O)cc1 (configuration not stated)
group-label: -1
//
compound: CC(=O)CC(=O)NC1=C(C#N)C(c2ccc(Cl)cc2)C2=C(CC(C)(C)CC2=O)N1c1ccc(S(N)(=O)=O)cc1 (configuration not stated)
group-label: -1
//
compound: CC(=O)NC1=C(C#N)C(c2ccc(Cl)cc2)C2=C(CC(C)(C)CC2=O)N1c1ccc(S(N)(=O)=O)cc1 (configuration not stated)
group-label: -1
//
compound: CC1(C)CC(=O)C2=C(C1)N(c1ccc(S(N)(=O)=O)cc1)c1ncnc(N)c1C2c1ccc(Cl)cc1 (configuration not stated)
group-label: 1
//
compound: CC1(C)CC(=O)C2=C(C1)N(c1ccc(S(N)(=O)=O)cc1)c1nc(CCl)[nH]c(=O)c1C2c1ccc(Cl)cc1 (configuration not stated)
group-label: -1

* * *

Test system: MCF7
assay: Anticancer activity against human MCF7 cells assessed as survival fraction at 50 uM after 48 hrs by SRB assay
Type: functional
Below, each of the compounds is paired with its reported Activity value.

compound: CC1(C)CC(=O)C2=C(C1)N(c1ccc(S(N)(=O)=O)cc1)C(N)=C(C1=NCCN1)C2c1ccc(Cl)cc1 (stereo unspecified)
target-or-test-system: MCF7
Activity: 0.568
//
compound: CC1(C)CC(=O)C2=C(C1)N(c1ccc(S(N)(=O)=O)cc1)c1ncnc(N)c1C2c1ccc(Cl)cc1 (stereo unspecified)
target-or-test-system: MCF7
Activity: 0.495
//
compound: CC1(C)CC(=O)C2=C(C1)N(c1ccc(S(N)(=O)=O)cc1)C(N1C(=O)CCC1=O)=C(C#N)C2c1ccc(Cl)cc1 (stereo unspecified)
target-or-test-system: MCF7
Activity: 0.584
//
compound: CC1(C)CC(=O)C2=C(C1)N(c1ccc(S(N)(=O)=O)cc1)C(NC(=O)CCl)=C(C#N)C2c1ccc(Cl)cc1 (stereo unspecified)
target-or-test-system: MCF7
Activity: 0.523
//
compound: CC1(C)CC(=O)C2=C(C1)N(c1ccc(S(N)(=O)=O)cc1)c1nc[nH]c(=S)c1C2c1ccc(Cl)cc1 (stereo unspecified)
target-or-test-system: MCF7
Activity: 0.884
//
compound: CC1(C)CC(=O)C2=C(C1)N(c1ccc(S(N)(=O)=O)cc1)c1nc(CCl)[nH]c(=O)c1C2c1ccc(Cl)cc1 (stereo unspecified)
target-or-test-system: MCF7
Activity: 0.731

* * *

System: MCF7
assay: Anticancer activity against human MCF7 cells assessed as survival fraction at 25 uM after 48 hrs by SRB assay
Format: functional
quantity-name: Activity

compound: CC1(C)CC(=O)C2=C(C1)N(c1ccc(S(N)(=O)=O)cc1)C(N)=C(C1=NCCN1)C2c1ccc(Cl)cc1 (stereo not drawn)
quantity-name: Activity
reading: 0.763
--
compound: CC1(C)CC(=O)C2=C(C1)N(c1ccc(S(N)(=O)=O)cc1)c1ncnc(N=C=S)c1C2c1ccc(Cl)cc1 (stereo not drawn)
quantity-name: Activity
reading: 0.721
--
compound: Cc1nc2c(c(=O)[nH]1)C(c1ccc(Cl)cc1)C1=C(CC(C)(C)CC1=O)N2c1ccc(S(N)(=O)=O)cc1 (stereo not drawn)
quantity-name: Activity
reading: 0.721
--
compound: CC1(C)CC(=O)C2=C(C1)N(c1ccc(S(N)(=O)=O)cc1)C(NC(=O)CCl)=C(C#N)C2c1ccc(Cl)cc1 (stereo not drawn)
quantity-name: Activity
reading: 0.736
--
compound: CC1(C)CC(=O)C2=C(C1)N(c1ccc(S(N)(=O)=O)cc1)C(N)=C(C(N)=O)C2c1ccc(Cl)cc1 (stereo not drawn)
quantity-name: Activity
reading: 0.662
--
compound: CCOC(=O)Cn1cnc2c(c1=O)C(c1ccc(Cl)cc1)C1=C(CC(C)(C)CC1=O)N2c1ccc(S(N)(=O)=O)cc1 (stereo not drawn)
quantity-name: Activity
reading: 0.88
--
compound: CCNC(=S)NC1=C(C#N)C(c2ccc(Cl)cc2)C2=C(CC(C)(C)CC2=O)N1c1ccc(S(N)(=O)=O)cc1 (stereo not drawn)
quantity-name: Activity
reading: 0.837
--
compound: CC1(C)CC(=O)C2=C(C1)N(c1ccc(S(N)(=O)=O)cc1)c1ncnc(Cl)c1C2c1ccc(Cl)cc1 (stereo not drawn)
quantity-name: Activity
reading: 0.696
